# System under test: 5-HT6 receptor (Homo sapiens (Human), UniProt P50406)
# Sequence (P50406 whole entry): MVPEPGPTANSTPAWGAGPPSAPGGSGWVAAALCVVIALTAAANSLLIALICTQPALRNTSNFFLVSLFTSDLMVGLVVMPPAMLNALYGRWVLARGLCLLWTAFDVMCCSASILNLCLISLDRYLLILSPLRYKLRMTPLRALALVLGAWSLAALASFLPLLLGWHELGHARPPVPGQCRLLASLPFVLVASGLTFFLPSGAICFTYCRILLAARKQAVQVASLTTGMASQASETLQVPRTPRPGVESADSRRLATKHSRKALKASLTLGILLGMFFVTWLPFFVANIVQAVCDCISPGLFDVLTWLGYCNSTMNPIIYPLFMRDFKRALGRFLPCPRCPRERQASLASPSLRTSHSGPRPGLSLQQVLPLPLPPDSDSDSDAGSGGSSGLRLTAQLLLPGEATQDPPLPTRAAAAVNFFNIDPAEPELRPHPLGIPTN
# Measurement protocol: Antagonistic activity towards 5-HT6 receptors: inhibition of serotonin-induced intracellular cAMP (LANCE cAMP) in HEK 293 cells
# Assay type: cell-based
# Experimental context: serotonin-stimulated intracellular cAMP production, read-out: IC50 in the setting of functional assay
Property measured: IC50 (nM)
State just the number; it will be interpreted in nM.

Here are 3 compounds together with their reported answers.
* CCSc1nn2c(C)cc(C)nc2c1S(=O)(=O)c1ccc(OC)cc1 | 320
* CSc1nn2c(C)cc(C)nc2c1S(=O)(=O)c1cccc(F)c1 | 25
* CSc1nn2c(C)cc(C)nc2c1S(=O)(=O)c1ccc(F)cc1 | 112

Now take the following compound into account.
Exercise: IC50 for CCSc1nn2c(C)cc(C)nc2c1S(=O)(=O)c1ccc(C)cc1 ?
Solution: 80
